assay: Pharmacokinetic measurements in rats (intravenous and intra-tracheal dosing); type: in vivo; details: rat, i.t. dosing, 0.1 h
So I've got a bunch of compounds here, and I need their BAL % administered dose at time (h) values.
Enter your answer as a number in %; do not include the unit.

Prompt: Identify measured BAL % administered dose at time (h) associated with COC(=O)c1ccc2c(c1)NC(=O)/C2=C(\Nc1ccc(N(C)C(=O)CN2CCN(C)CC2)cc1)c1ccccc1 [Nintedanib, reference compound]
Response: 2

Prompt: Give recorded BAL % administered dose at time (h). COC(=O)c1cc2c(cc1C)/C(=C(/Nc1ccc(C(=O)NOCCN3CCN(C)CC3)cc1)c1ccccc1)C(=O)N2
Response: 6

Prompt: Tell us which BAL % administered dose at time (h) value is on record for COC(=O)c1cc2c(cc1C)/C(=C(/Nc1ccc(C(=O)NOCCN(C)C)c(C)c1)c1ccccc1)C(=O)N2
Response: 3.1

Prompt: Tell me measured BAL % administered dose at time (h) for COC(=O)c1cc2c(cc1C)/C(=C(/Nc1ccc(C(=O)NOCCN3CCN(CCO)CC3)cc1)c1ccccc1)C(=O)N2 please.
Response: 5.3

Prompt: Report BAL % administered dose at time (h) for COC(=O)c1ccc2c(c1)NC(=O)/C2=C(\Nc1ccc(C(=O)NOCCN2CCN(C)CC2)cc1)c1ccccc1
Response: 3

Prompt: State its BAL % administered dose at time (h): COC(=O)c1ccc2c(c1)NC(=O)/C2=C(\Nc1ccc(S(=O)(=O)NOCCN(C)C)cc1)c1ccccc1
Response: 2.4

Prompt: Specify BAL % administered dose at time (h) for COC(=O)c1ccc2c(c1)NC(=O)/C2=C(\Nc1ccc(C(=O)NOCCN(C)C)cc1)c1ccccc1 and stop.
Response: 3

* * *

test system: MRC5 cells; experiment: Cell viability assay in MRC5 cells (MTT); conditions: 1000 nM
Please respond with reported Cell viability at 1000 nM (%) for every item in the list.
Report the value in % with no unit label.

Prompt: # return Cell viability at 1000 nM (%) for COC(=O)c1ccc2c(c1)NC(=O)/C2=C(\Nc1ccc(C(=O)NOCCN2CCN(C)CC2)c(C)c1)c1ccccc1 , test system: MRC5 cells
Response: 92.5

Prompt: State Cell viability at 1000 nM (%) (MRC5 cells) of COC(=O)c1cc2c(cc1C)/C(=C(/Nc1ccc(C(=O)N(C)OCCN3CC4CC(C3)N4)cc1)c1ccccc1)C(=O)N2 .
Response: 53.8

Prompt: With MRC5 cells as the test system, provide measured Cell viability at 1000 nM (%) for this compound: COC(=O)c1ccc2c(c1)NC(=O)/C2=C(\Nc1ccc(C(=O)N(C)OCCN2CCN(C)CC2)c(C)c1)c1ccccc1
Response: 68.7

Prompt: Param request: Cell viability at 1000 nM (%) | system MRC5 cells | item CNC(=O)CN1CCN(CCON(C)C(=O)c2ccc(N/C(=C3\C(=O)Nc4cc(C(=O)OC)c(C)cc43)c3ccccc3)cc2)CC1
Response: 88.6

Prompt: For MRC5 cells, give the measured Cell viability at 1000 nM (%) of the entry COC(=O)c1cc2c(cc1C)/C(=C(/Nc1ccc(C(=O)NOCCN3CCN(C)CC3)cc1)c1ccccc1)C(=O)N2
Response: 77

Prompt: Lab note: MRC5 cells assay, enter Cell viability at 1000 nM (%) for COC(=O)c1ccc2c(c1)NC(=O)/C2=C(\Nc1ccc(C(=O)NOCCN(C)CCO)cc1)c1ccccc1 here
Response: 80.7

Prompt: Provide Cell viability at 1000 nM (%), tested on MRC5 cells, for COCCN1CCN(CCONC(=O)c2ccc(N/C(=C3\C(=O)Nc4cc(C(=O)OC)ccc43)c3ccccc3)cc2)CC1 .
Response: 86.3

Prompt: Fetch value of Cell viability at 1000 nM (%) on MRC5 cells for COC(=O)c1ccc2c(c1)NC(=O)/C2=C(\Nc1ccc(C(=O)NOCCCN(C)C)cc1)c1ccccc1 .
Response: 76.9

Prompt: Tell me Cell viability at 1000 nM (%) of COC(=O)c1cc2c(cc1C)/C(=C(/Nc1ccc(C(=O)N(C)OCCN3C[C@@H]4C[C@H]3CN4)cc1)c1ccccc1)C(=O)N2 when tested on MRC5 cells.
Response: 103.8

Prompt: # lookup: MRC5 cells Cell viability at 1000 nM (%), key = COC(=O)c1cc2c(cc1C)/C(=C(/Nc1ccc(C(=O)NOC3CCN(C)CC3)cc1)c1ccccc1)C(=O)N2
Response: 26

Prompt: Give measured Cell viability at 1000 nM (%) for COC(=O)c1ccc2c(c1)NC(=O)/C2=C(\Nc1ccc(C(=O)NOCCN2CCC(N(C)C)CC2)cc1)c1ccccc1 (MRC5 cells).
Response: 93

Prompt: Report the value of Cell viability at 1000 nM (%) obtained on MRC5 cells for CCN1CCN(CCONC(=O)c2ccc(N/C(=C3\C(=O)Nc4cc(C(=O)OC)c(C)cc43)c3ccccc3)cc2)CC1 .
Response: 65.9

Prompt: Report value: Cell viability at 1000 nM (%), system: MRC5 cells, compound: COC(=O)c1ccc2c(c1)NC(=O)/C2=C(\Nc1ccc(N(C)C(=O)CN2CCN(C)CC2)cc1)c1ccccc1 [Nintedanib, reference compound]
Response: 92.7

Prompt: Fill in: Cell viability at 1000 nM (%) on MRC5 cells, entry COC(=O)c1cc2c(cc1C)/C(=C(/Nc1ccc(C(=O)N(C)OCCN3C4CCC3CNC4)cc1)c1ccccc1)C(=O)N2
Response: 0.2

Prompt: Report Cell viability at 1000 nM (%) under test system MRC5 cells for COC(=O)c1ccc2c(c1)NC(=O)/C2=C(\Nc1ccc(C(=O)N(OC)C2CCN(C)CC2)cc1)c1ccccc1 .
Response: 53

Prompt: Fill in: Cell viability at 1000 nM (%) on MRC5 cells, entry COC(=O)c1ccc2c(c1)NC(=O)/C2=C(\Nc1ccc(C(=O)NOCCN2CCN(C)CC2)cc1)c1ccccc1
Response: 88.8

Prompt: GET Cell viability at 1000 nM (%) where system = MRC5 cells and item = COC(=O)c1ccc2c(c1)NC(=O)/C2=C(\Nc1ccc(S(=O)(=O)N(C)OCCN2CCN(C)CC2)cc1)c1ccccc1
Response: 79.3

Prompt: Enter recorded Cell viability at 1000 nM (%) with MRC5 cells for COC(=O)c1ccc2c(c1)NC(=O)/C2=C(\Nc1ccc(C(=O)N(C)OCCN2CCN(C)CC2)cc1)c1ccccc1 here.
Response: 87.5

Prompt: Return reported Cell viability at 1000 nM (%) for target or system MRC5 cells, item COC(=O)c1cc2c(cc1C)/C(=C(/Nc1ccc(C(=O)N(OC)C3CCN(C)CC3)c(C)c1)c1ccccc1)C(=O)N2 .
Response: 61.5

Prompt: State, for MRC5 cells, measured Cell viability at 1000 nM (%) of the compound listed here: COC(=O)c1cc2c(cc1C)/C(=C(/Nc1ccc(C(=O)N(C)OCCN(C)CCO)cc1)c1ccccc1)C(=O)N2
Response: 70.5

Prompt: Jot down Cell viability at 1000 nM (%) (MRC5 cells) of COC(=O)c1cc2c(cc1C)/C(=C(/Nc1ccc(C(=O)N(C)OCCN3CCN(CCO)CC3)cc1)c1ccccc1)C(=O)N2 .
Response: 55.6

Prompt: For MRC5 cells, give Cell viability at 1000 nM (%) of the listed compound: COC(=O)c1ccc2c(c1)NC(=O)/C2=C(\Nc1ccc(C(=O)NOCCN2CCCCC2)cc1)c1ccccc1
Response: 91

Prompt: Find the measured Cell viability at 1000 nM (%) of COC(=O)c1ccc2c(c1)NC(=O)/C2=C(\Nc1ccc(C(=O)NOCCN(C)C)cc1)c1ccccc1 with MRC5 cells as test system.
Response: 67.2

Prompt: Write down the reported Cell viability at 1000 nM (%) (system: MRC5 cells) of COC(=O)c1cc2c(cc1C)/C(=C(/Nc1ccc(C(=O)NOCCN3CCC(N(C)C)CC3)cc1)c1ccccc1)C(=O)N2
Response: 69.7

Prompt: Using MRC5 cells as the test system, report measured Cell viability at 1000 nM (%) of COC(=O)c1cc2c(cc1C)/C(=C(/Nc1ccc(C(=O)NOCCCN3CCCCC3)cc1)c1ccccc1)C(=O)N2 .
Response: 97.8

Prompt: Param request: Cell viability at 1000 nM (%) | system MRC5 cells | item COC(=O)c1cc2c(cc1C)/C(=C(/Nc1ccc(C(=O)NOCCN3CCC(C#N)CC3)cc1)c1ccccc1)C(=O)N2
Response: 12.1

Prompt: Please look at COC(=O)c1cc2c(cc1C)/C(=C(/Nc1ccc(C(=O)NOCCN(C)C)c(C)c1)c1ccccc1)C(=O)N2 and tell me its recorded Cell viability at 1000 nM (%) on MRC5 cells.
Response: 71.5
